method-notes: Skin cell toxicity assay with HaCaT (alamarBlue)
Format: cell-based, human
study-conditions: human, HaCaT cells (keratinocytes), ED50 HaCaT
Square brackets hold non-standard residues; d marks the D form. Peptide text beside a SMILES is read from it. N(4-F-Bzl)Gly = O=C(O)CNCc1ccc(F)cc1; NhArg = N=C(N)NCCCCNCC(=O)O; Nphe = O=C(O)CNCc1ccccc1; Nlys = NCCCCNCC(=O)O
assay-endpoint: CC50 at 24 h (µM)
Give just the numeric value; µM need not be written.

- compound: "N=C(N)NCCCCNCC(=O)N(CC(=O)N(CC(=O)N(CCCCNC(=N)N)CC(=O)N(CC(=O)N(CC(=O)N(CCCCNC(=N)N)CC(=O)N(CC(=O)N(CC(=O)N(CCCCNC(=N)N)CC(=O)N(CC(=O)N(CC(N)=O)Cc1ccccc1)Cc1ccccc1)Cc1ccccc1)Cc1ccccc1)Cc1ccccc1)Cc1ccccc1)Cc1ccccc1)Cc1ccccc1 [Peptoid 33, (NhArgNpheNphe)4] (H-[NhArg][Nphe][Nphe][NhArg][Nphe][Nphe][NhArg][Nphe][Nphe][NhArg][Nphe][Nphe]-NH2)"
  measure-unit: "µM"
  CC50 at 24 h: 100
- compound: "CCCCCN(CC(=O)N(CC(=O)N(CC(=O)N(CCCCN)CC(=O)N(CC(=O)N(CC(N)=O)[C@@H](C)c1ccccc1)[C@@H](C)c1ccccc1)[C@@H](C)c1ccccc1)[C@@H](C)c1ccccc1)C(=O)CN(C(=O)CN(C(=O)CN(CCCCN)C(=O)CN(C(=O)CN(C(=O)CNCCCCN)[C@@H](C)c1ccccc1)[C@@H](C)c1ccccc1)[C@@H](C)c1ccccc1)[C@@H](C)c1ccccc1 [Peptoid 32]"
  measure-unit: "µM"
  CC50 at 24 h: 20

# context switch: different compound, same CC50 at 24 h
Prompt line: Please indicate CC50 at 24 h recorded for NCCCCNCC(=O)N(CC(=O)N(CC(=O)N(CCCCN)CC(=O)N(CC(=O)N(CC(=O)N(CCCCN)CC(=O)N(CC(=O)N(CC(N)=O)Cc1ccc(F)cc1)Cc1ccc(F)cc1)Cc1ccc(F)cc1)Cc1ccc(F)cc1)Cc1ccc(F)cc1)Cc1ccc(F)cc1 [Peptoid 23, (NLysNpfbNpfb)3] (H-[Nlys][N(4-F-Bzl)Gly][N(4-F-Bzl)Gly][Nlys][N(4-F-Bzl)Gly][N(4-F-Bzl)Gly][Nlys][N(4-F-Bzl)Gly][N(4-F-Bzl)Gly]-NH2)
Response line: 100
